Listing of entries alongside the reported microsomal CLint at 1 µM.
experiment: Intrinsic clearance in mouse liver microsomes assessed per mg of protein at 1 uM preincubated for 45 mins followed by NADPH addition; assay type: ADME, microsome; conditions: read-out: CLH
The reply should be a number in µL/min/mg, with the unit left off.

{"molecular-string": "O=C1C(O)=C(I)C(=O)c2ccccc21", "measured-number": 24.6}

Consider now this further compound.
Fill in the blank: the reported microsomal CLint at 1 µM of O=C1C(O)=C(c2ccccc2)C(=O)c2ccccc21 is ____.
27.7

---

assay: Intrinsic clearance in human liver microsomes assessed per mg of protein at 1 uM preincubated for 45 mins followed by NADPH addition; format: ADME, microsome; settings: read-out: CLH
property: microsomal CLint at 1 µM (µL/min/mg)
The reply should be a number in µL/min/mg, with the unit left off.

{"molecular-string": "O=C1C(O)=C(c2ccccc2)C(=O)c2ccccc21", "microsomal CLint at 1 µM (µL/min/mg)": 36.8}

Consider now this further compound.
Fill in the blank: the reported microsomal CLint at 1 µM of O=C1C(O)=C(I)C(=O)c2ccccc21 is ____.
31.1

---

test: Kinetic solubility in pH 10 sodium hydroxide buffer; assay type: physicochemical; conditions: read-out: Kinetic_solubility
Listing of entries alongside the reported solubility kinetic.

{"molecular-string": "O=C1C(O)=C(I)C(=O)c2ccccc21", "solubility kinetic": "300 µM"}

Fill in the blank: the reported solubility kinetic of O=C1C(O)=C(c2ccccc2)C(=O)c2ccccc21 is ____.
< 500 µM

---

test: Cytotoxicity against Swiss Webster mouse peritoneal macrophages by LDH release assay; assay type: cell-based, Peritoneal macrophage
Listing of entries alongside the reported log10 of CC50.
Could you please treat all values as log10 of CC50 in µM?

{"compound": "O=C1C(O)=C(Br)C(=O)c2ccccc21", "measured-number": 2.93}
{"compound": "O=C1C(O)=C(I)C(=O)c2ccccc21", "measured-number": 3.31}
{"compound": "CCOc1ccc(Nc2ccc(/C(=C3C=C/C(=[N+](/CC)Cc4cccc(S(=O)(=O)[O-])c4)C=C/3C)c3ccc(N(CC)Cc4cccc(S(=O)(=O)O)c4)cc3C)cc2)cc1", "measured-number": 1.94}
{"compound": "O=C1C(O)=C(c2ccccc2)C(=O)c2ccccc21", "measured-number": 3.30}

Fill in the blank: the reported log10 of CC50 of COc1ccc(CC(=O)NC(N/C(=N/C#N)Nc2cccc3ncccc23)C(C)(C)C)cc1OC (stereo not given) is ____.
2.51

---

Listing of entries alongside the reported selectivity ratio.
test system: P2X7R; experiment: Selectivity index, ratio of CC50 for Swiss Webster mouse peritoneal macrophages to IC50 for antagonist activity at P2X7R in Swiss Webster mouse peritoneal macrophages; assay type: toxicity; settings: read-out: Ratio CC50/IC50
A bare number is all that is needed in reply.

Worked set:
{"compound": "COc1ccc(CC(=O)NC(N/C(=N/C#N)Nc2cccc3ncccc23)C(C)(C)C)cc1OC (stereo not given)", "property": "selectivity ratio", "measured-number": 362}
{"compound": "O=C1C(O)=C(Br)C(=O)c2ccccc21", "property": "selectivity ratio", "measured-number": 1180}
{"compound": "CCOc1ccc(Nc2ccc(/C(=C3C=C/C(=[N+](/CC)Cc4cccc(S(=O)(=O)[O-])c4)C=C/3C)c3ccc(N(CC)Cc4cccc(S(=O)(=O)O)c4)cc3C)cc2)cc1", "property": "selectivity ratio", "measured-number": 5.73}
{"compound": "O=C1C(O)=C(c2ccccc2)C(=O)c2ccccc21", "property": "selectivity ratio", "measured-number": 86400}

Fill in the blank: the reported selectivity ratio of O=C1C(O)=C(I)C(=O)c2ccccc21 is ____.
50600

---

Molecular target: P2X purinoceptor 7 (Mus musculus)
Sequence (Q9Z1M0 whole entry): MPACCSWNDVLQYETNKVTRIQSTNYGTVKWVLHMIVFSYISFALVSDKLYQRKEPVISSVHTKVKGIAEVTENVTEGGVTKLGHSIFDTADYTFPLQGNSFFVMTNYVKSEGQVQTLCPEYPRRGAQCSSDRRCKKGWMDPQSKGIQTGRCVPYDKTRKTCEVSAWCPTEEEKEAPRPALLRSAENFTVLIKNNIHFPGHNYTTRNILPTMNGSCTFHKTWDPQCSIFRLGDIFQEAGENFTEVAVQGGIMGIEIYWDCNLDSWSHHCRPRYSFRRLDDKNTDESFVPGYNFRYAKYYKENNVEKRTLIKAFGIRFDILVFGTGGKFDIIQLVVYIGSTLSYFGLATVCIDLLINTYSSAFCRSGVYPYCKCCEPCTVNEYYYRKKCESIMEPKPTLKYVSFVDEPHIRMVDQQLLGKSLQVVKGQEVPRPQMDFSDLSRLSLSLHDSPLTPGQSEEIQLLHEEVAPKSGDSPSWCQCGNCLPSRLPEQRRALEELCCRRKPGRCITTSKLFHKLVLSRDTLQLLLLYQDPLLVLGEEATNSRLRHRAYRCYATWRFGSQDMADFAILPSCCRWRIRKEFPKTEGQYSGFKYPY
Assay: Antagonist activity at P2X7R in Swiss Webster mouse peritoneal macrophages assessed as inhibition of ATP-induced propidium iodide uptake preincubated for 10 mins followed by ATP induction measured after 25 mins by fluorescence assay
property: pIC50
Remember the convention: pIC50 equals -log10 of concentration in molar.

Worked set:
{"compound": "O=C1C(O)=C(c2cccc(F)c2)C(=O)c2ccccc21", "target-or-test-system": "P2X purinoceptor 7 (Mus musculus)", "measured-number": 4.48}
{"compound": "O=C1C=C(O)C(=O)c2ccccc21", "target-or-test-system": "P2X purinoceptor 7 (Mus musculus)", "measured-number": 4.12}
{"compound": "CCOc1ccc(Nc2ccc(/C(=C3C=C/C(=[N+](/CC)Cc4cccc(S(=O)(=O)[O-])c4)C=C/3C)c3ccc(N(CC)Cc4cccc(S(=O)(=O)O)c4)cc3C)cc2)cc1", "target-or-test-system": "P2X purinoceptor 7 (Mus musculus)", "measured-number": 4.82}
{"compound": "O=C1C(O)=C(Br)C(=O)c2ccccc21", "target-or-test-system": "P2X purinoceptor 7 (Mus musculus)", "measured-number": 6.15}
{"compound": "COc1ccc(C2=C(O)C(=O)c3ccccc3C2=O)cc1", "target-or-test-system": "P2X purinoceptor 7 (Mus musculus)", "measured-number": 4.10}
{"compound": "N#Cc1ccc(C2=C(O)C(=O)c3ccccc3C2=O)cc1", "target-or-test-system": "P2X purinoceptor 7 (Mus musculus)", "measured-number": 4.34}
{"compound": "COc1cccc(C2=C(O)C(=O)c3ccccc3C2=O)c1", "target-or-test-system": "P2X purinoceptor 7 (Mus musculus)", "measured-number": 5.50}
{"compound": "Cc1ccc(C2=C(O)C(=O)c3ccccc3C2=O)cc1", "target-or-test-system": "P2X purinoceptor 7 (Mus musculus)", "measured-number": 4.09}
{"compound": "O=C1C(O)=C(c2ccccc2)C(=O)c2ccccc21", "target-or-test-system": "P2X purinoceptor 7 (Mus musculus)", "measured-number": 7.64}
{"compound": "O=C1C(O)=C(I)C(=O)c2ccccc21", "target-or-test-system": "P2X purinoceptor 7 (Mus musculus)", "measured-number": 7.32}

Consider now this further compound.
Fill in the blank: the reported pIC50 of COc1ccc(CC(=O)NC(N/C(=N/C#N)Nc2cccc3ncccc23)C(C)(C)C)cc1OC (stereo unspecified) is ____.
6.05

---

experiment: Apparent permeability across apical to basolateral side in human Caco2 cells at 100 uM after 60 mins by lucifer yellow fluorescence-based assay; assay type: ADME, cell-based; conditions: Caco-2
property: Papp A→B at 1 h, 100 µM
Don't forget the unit after the number, please.

{"molecular-string": "O=C1C(O)=C(c2ccccc2)C(=O)c2ccccc21", "Papp A→B at 1 h, 100 µM": "61.1 ×10⁻⁶ cm/s"}

Consider now this further molecule.
Fill in the blank: the reported Papp A→B at 1 h, 100 µM of O=C1C(O)=C(I)C(=O)c2ccccc21 is ____.
54.2 ×10⁻⁶ cm/s

---

experiment: Safety index, ratio of test compound CC50 to BGG CC50 for Swiss Webster mouse peritoneal macrophages by LDH release assay; assay type: ADME, cell-based, Peritoneal macrophage
property: selectivity ratio

Worked set:
{"molecular-string": "O=C1C(O)=C(I)C(=O)c2ccccc21", "result": "10 to 20"}
{"molecular-string": "O=C1C(O)=C(Br)C(=O)c2ccccc21", "result": "10 to 20"}

Consider now this further compound.
Fill in the blank: the reported selectivity ratio of O=C1C(O)=C(c2ccccc2)C(=O)c2ccccc21 is ____.
10 to 20

---

test: Kinetic solubility in pH 4 citrate buffer; type: physicochemical; details: read-out: Kinetic_solubility
property: solubility kinetic (µM)
The reply should be a number in µM, with the unit left off.

Fill in the blank: the reported solubility kinetic of O=C1C(O)=C(I)C(=O)c2ccccc21 is ____.
300

Origin of the recorded values: ChEMBL document CHEMBL4251561
